Assay: PK comparison across studies M04-710 and M05-756 (race, cancer type)
Format: in vivo, human
Conditions: human, plasma, oral, 42 patients across studies; read-out: mean terminal elimination half-life

compound | half-life
Cc1ccc(F)c(NC(=O)Nc2ccc(-c3cccc4[nH]nc(N)c34)cc2)c1 [ABT-869] | 13.9 to 23.1 h

---

Test: Study M04-710 pharmacokinetics, multiple-dose escalation, non-hematologic malignancies
Format: in vivo, human
Settings: human, plasma, oral, 0.3 mg/kg, Study Day 15; 0.30 mg/kg; mean ± SD; read-out: AUC0-24

substance-smiles | AUC(0-t)
Cc1ccc(F)c(NC(=O)Nc2ccc(-c3cccc4[nH]nc(N)c34)cc2)c1 | 5.3 µg·h/mL
